- Target Of Assay: His-tagged CD8α human recombinant protein (MBS968456, MyBioSource) (human) (UniProt P01732)
- Sequence (P01732 22-182 limits assumed): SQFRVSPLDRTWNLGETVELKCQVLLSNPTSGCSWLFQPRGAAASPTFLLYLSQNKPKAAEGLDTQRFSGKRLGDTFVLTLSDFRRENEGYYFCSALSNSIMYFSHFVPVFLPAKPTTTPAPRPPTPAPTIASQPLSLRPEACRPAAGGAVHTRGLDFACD
- Protocol: sandwich ELISA; biotinylated biligand on NeutrAvidin plate, His-tagged CD8α titrated
Square brackets hold non-standard residues; d marks the D form. Primed or numbered codes have the meaning given here. Ends that are not written are not given here. * marks the point of attachment. PEG3′ = PEG linker of three ethylene glycol repeat units; Biotin = O=C1N[C@H]2[C@H](CS[C@H]2CCCCC(=O)*)N1; Pra = C#CC[C@H](N)C(=O)O
Reported Property: fold below the affinity of the optimal linker (PEG5) biligand

- Binder: "Biotin-PEG3-Cy(HGRGH)-PEG7-Cy(wplrf) (not fully specified (some residues, C-terminus); printed as Biotin-PEG3-Cy(HGRGH)-PEG7-Cy(wplrf); numbers in words are those of the source; also: joined C-terminally through a PEG7 linker to the second macrocycle, triazole to a chain's N/C-terminus) peptide 1: {Biotin-PEG3′}-[Pra]HGRGH peptide 2: [Pra][dW][dP][dL][dR][dF]"
  Result Value: "10 fold"
- Binder: "Biotin-PEG3-Cy(HGRGH)-PEG4-Cy(wplrf) (not fully specified (some residues, C-terminus); printed as Biotin-PEG3-Cy(HGRGH)-PEG4-Cy(wplrf); numbers in words are those of the source; also: joined C-terminally through a PEG4 linker to the second macrocycle, triazole to a chain's N/C-terminus) peptide 1: {Biotin-PEG3′}-[Pra]HGRGH peptide 2: [Pra][dW][dP][dL][dR][dF]"
  Result Value: "10 fold"
- Binder: "Biotin-PEG3-Cy(HGRGH)-PEG3-Cy(wplrf) (not fully specified (some residues, C-terminus); numbers in words are those of the source; also: joined C-terminally through a PEG3 linker to the second macrocycle, triazole to a chain's N/C-terminus) peptide 1: {Biotin-PEG3′}-[Pra]HGRGH peptide 2: [Pra][dW][dP][dL][dR][dF]"
  Result Value: "10 fold"
